target: Insulin-like growth factor 1 receptor (Homo sapiens); test: Inhibition of IGF1R at 10 uM by HTRF assay relative to control
REPORTED PROPERTY: inhibition (%)

Cc1cccc(N(C)c2cc(N3CCN(C(=O)Cc4c[nH]c5ccccc45)CC3)ncn2)c1
0
Cc1cccc(Oc2ccnc(N3CCC[C@H]3C(=O)NCCCn3ccnc3)n2)c1
8
COc1ccc(NC(=O)Cc2ccc(Nc3cc(N(C)c4cccc(C)c4)ncn3)cc2)cn1
6
CN(C)CC(C)(C)CNC(=O)[C@@H]1CCCN1c1nccc(Nc2ccccc2)n1
0
Cc1cccc(Oc2ccnc(N3CCN(C(=O)c4c(C)noc4C)CC3)n2)c1
0
Nc1nc(Nc2ccc3ncsc3c2)cc(N2CCC[C@H]2C(=O)NCCc2cccc(I)c2)n1
0
COc1ccc(-c2noc(CN3CCN(c4cc(Nc5cccc(O)c5)ncn4)CC3)n2)cc1
0
CN(C)CC(C)(C)CNC(=O)C1CCN(c2cc(N3CCOCC3)nc(N)n2)CC1
0
O=C(c1nc(SCc2ccc(Cl)cc2)n2ccccc12)N1CCN(c2ncnc3c2CN(Cc2ccccc2)CC3)CC1
0

----------
experiment: Inhibition of PKA at 10 uM by HTRF assay relative to control
// reported inhibition for each item listed
REPORTED PROPERTY: inhibition (%)

Cc1cccc(N(C)c2cc(Nc3cccc(C(=O)NCc4ccc(N(C)C)cc4)c3)ncn2)c1
0
CN(CCCn1ccnc1)C(=O)[C@@H]1CCCN1c1nccc(Nc2ccccc2)n1
0
Cc1cccc(Nc2nccc(Nc3cccc(C(=O)NCc4ccc(N(C)C)cc4)c3)n2)c1
0
COc1cccc(Nc2cc(N3CCC[C@H]3C(=O)NCCc3ccc(O)cc3)nc(N)n2)c1
0
Nc1nc(N2CCOCC2)cc(N2CCC(C(=O)NCc3cccs3)CC2)n1
0
O=C(NCc1ccncc1)c1cccc(Nc2cc(Nc3cccc(Br)c3)ncn2)c1
0
CC(=O)CCCCC(=O)N1CCN(c2nccc(Oc3cccc(C)c3)n2)CC1
0
Nc1nc(Nc2ccc3ncsc3c2)cc(N2CCC[C@H]2C(=O)NCCc2cccc(I)c2)n1
1
Cc1cccc(Nc2nccc3c2CN(C(=O)c2cc(C)n(C)c2C)CC3)c1
0
Cc1cccc(Oc2ccnc(N3CCC[C@H]3C(=O)NCCCn3ccnc3)n2)c1
0
Cc1cccc(CN2CCN(c3cc(N(C)c4cccc(C)c4)ncn3)CC2)c1
0
COc1ccc(-c2noc(CN3CCN(c4cc(Nc5cccc(O)c5)ncn4)CC3)n2)cc1
0
Cc1cccc(N(C)c2cc(Nc3cccc(C(=O)N(CC(C)C)CC(C)C)c3)ncn2)c1
2
Cc1cccc(N(C)c2cc(N3CCN(C(=O)Cc4c[nH]c5ccccc45)CC3)ncn2)c1
0
Cc1cccc(N(C)c2cc(N3CCN(CC(=O)Nc4nc(-c5ccccc5)cs4)CC3)ncn2)c1
0
Cc1cccc(Nc2cc(Nc3cccc(C(=O)N(CC(C)O)CC(C)O)c3)ncn2)c1 (stereo not given)
0
COc1cccc(Nc2cc(N3CCC[C@H]3C(=O)NCCN3CCCCC3)nc(N)n2)c1
0
Cc1ccc(CN2CCN(c3nccc(C(C#N)c4ccccn4)n3)CC2)cc1 (stereo not given)
0
O=C(c1nc(SCc2ccc(Cl)cc2)n2ccccc12)N1CCN(c2cc(Nc3cccc(Br)c3)ncn2)CC1
1
COC[C@@H]1CCCN1C(=O)C1CCCN1c1cc(Nc2cccc(Br)c2)ncn1 (stereo not given in full)
8
